molecular target: Gal4 DNA binding domain fused to the LBD of LXRα in HEK293 cells (Homo sapiens (Human), UniProt Q13133); assay: LXR luciferase transcriptional reporter gene assay, antagonist mode (200 nM T0901317), LXRα; format: cell-based
Sequence (Q13133 209-447): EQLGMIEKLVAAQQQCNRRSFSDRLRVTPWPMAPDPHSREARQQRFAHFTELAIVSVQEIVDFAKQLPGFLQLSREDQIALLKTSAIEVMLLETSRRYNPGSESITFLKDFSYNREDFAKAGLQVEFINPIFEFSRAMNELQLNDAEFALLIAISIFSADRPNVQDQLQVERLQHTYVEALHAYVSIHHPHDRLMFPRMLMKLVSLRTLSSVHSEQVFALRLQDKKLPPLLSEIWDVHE
quantityMeasured: IC50 (nM)
Output spec: scalar in nM, unitless text.

Problem: Any idea what its IC50 is? The molecule is CC(C)[C@@H]1CN(c2cccc(S(C)(=O)=O)c2)CCN1c1nccc(OC(F)F)n1
Solution: 1470

====

molecular target: Gal4 DNA binding domain fused to the LBD of LXRβ in HEK293 cells (Homo sapiens (Human), UniProt P55055); assay: cell-based; conditions: agonist mode
Sequence (P55055 222-460 limits assumed): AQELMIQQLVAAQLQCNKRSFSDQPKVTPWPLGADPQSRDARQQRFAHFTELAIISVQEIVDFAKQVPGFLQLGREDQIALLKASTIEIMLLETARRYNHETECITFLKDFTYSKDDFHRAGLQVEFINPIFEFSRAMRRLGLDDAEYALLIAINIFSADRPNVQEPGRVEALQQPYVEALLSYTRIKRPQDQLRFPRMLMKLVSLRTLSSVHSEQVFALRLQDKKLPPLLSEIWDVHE
This section presents compounds with their documented Cell LXRβ efficacy values.

Some entries whose results are on file:
- compound: "CC(C)[C@H]1CN(c2ccc(CO)c(S(C)(=O)=O)c2)CCN1c1ncc(C(C)(C)O)c(C(F)(F)F)n1"
  Cell LXRβ efficacy: "980 (58) %"
- compound: "CS(=O)(=O)c1cc(N2CCN(C[C@H]3CC[C@H](C(F)(F)F)CC3)[C@@H](c3ccccc3)C2)ccc1C(N)=O (single isomer, unassigned)"
  Cell LXRβ efficacy: "24%"
- compound: "CCOC(=O)c1cnc(N2CCN(c3ccc(F)c(S(C)(=O)=O)c3)CC2CC(F)(F)F)nc1C (stereo not shown)"
  Cell LXRβ efficacy: "191 (31) %"

Problem: Any idea what its Cell LXRβ efficacy is? The compound is CS(=O)(=O)c1cccc(N2CCN(Cc3ccc(C(F)(F)F)c(F)c3)[C@@H](c3ccccc3)C2)c1 (single isomer, unassigned)
Solution: 676 (62) %
